assay: Chemical stability of the compound in methanol measured at 48 hrs by LC-MS analysis; assay type: physicochemical; details: read-out: Stability
Property Name: remaining at 48 h

INPUT: So what's the measured remaining at 48 h for this one? `CCCc1cc(O)cc(O)c1C(=O)OC`
OUTPUT: 99.9%

INPUT: So what's the measured remaining at 48 h for this one? COc1cc(C)c2c(c1C=O)Oc1c(c(C)c(O)c3c1C(O)OC3=O)OC2=O (stereo unspecified) [STICTIC ACID]
OUTPUT: 91.8%

INPUT: So what's the measured remaining at 48 h for this one? `COc1cc(C)c2c(c1C=O)Oc1c(C=O)c(C(=O)O)c(O)c(C)c1OC2=O`
OUTPUT: 89.6%

INPUT: So what's the measured remaining at 48 h for this one? CC(=O)C1=C(O)C=C2Oc3c(C(C)=O)c(O)c(C)c(O)c3[C@@]2(C)C1=O [(+)-USNIC ACID]
OUTPUT: 99.9%

INPUT: So what's the measured remaining at 48 h for this one? `CCCc1cc(OC)cc(O)c1C(=O)Oc1c(O)cc(CCC)c(C(=O)OC)c1O`
OUTPUT: 35.3%

INPUT: So what's the measured remaining at 48 h for this one? `CCCc1cc(O)c(O)c(O)c1C(=O)OC`
OUTPUT: 94.6%

----------
test: Chemical stability of the compound in methanol measured at 72 hrs by LC-MS analysis; type: physicochemical; conditions: read-out: Stability
Labelling: remaining at 72 h reported below 90% becomes label 1; at or above becomes label 0.

INPUT: Field: below-cutoff. Rule: recorded remaining at 72 h strictly less than 90%. Subject: `CCCc1cc(OC)cc(O)c1C(=O)Oc1c(O)cc(CCC)c(C(=O)OC)c1O`
OUTPUT: label 1

INPUT: Field: below-cutoff. Rule: recorded remaining at 72 h strictly less than 90%. Subject: `CCCc1cc(O)c(O)c(O)c1C(=O)OC`
OUTPUT: label 0

INPUT: Field: below-cutoff. Rule: recorded remaining at 72 h strictly less than 90%. Subject: CC(=O)C1=C(O)C=C2Oc3c(C(C)=O)c(O)c(C)c(O)c3[C@@]2(C)C1=O [(+)-USNIC ACID]
OUTPUT: label 0

INPUT: Field: below-cutoff. Rule: recorded remaining at 72 h strictly less than 90%. Subject: `CCCc1cc(O)cc(O)c1C(=O)OC`
OUTPUT: label 0

----------
Field: pIC50. Provide a value for each of the compounds that follow.
system: HL-60; experiment: Cytotoxicity against human HL60 cells after 24 hrs by WST-1 assay; assay type: functional, cell-based; settings: HL-60, 24 h
pIC50: −log10 of the molar value.

INPUT: Kindly state the measured pIC50 obtained for `CCCc1cc(O)cc(O)c1C(=O)OC` with HL-60.
OUTPUT: < 5.00

INPUT: Kindly state the measured pIC50 obtained for `CCCc1cc(OC)cc(O)c1C(=O)Oc1c(O)cc(CCC)c(C(=O)OC)c1O` with HL-60.
OUTPUT: < 5.00

INPUT: Kindly state the measured pIC50 obtained for `CCCc1cc(O)c(O)c(O)c1C(=O)OC` with HL-60.
OUTPUT: < 5.00

INPUT: Kindly state the measured pIC50 obtained for COc1cc(C)c2c(c1C=O)Oc1c(c(C)c(O)c3c1C(O)OC3=O)OC2=O (stereo unspecified) [STICTIC ACID] with HL-60.
OUTPUT: < 5.00

INPUT: Kindly state the measured pIC50 obtained for `COc1cc(C)c2c(c1C=O)Oc1c(C=O)c(C(=O)O)c(O)c(C)c1OC2=O` with HL-60.
OUTPUT: < 5.00

INPUT: Kindly state the measured pIC50 obtained for CC(=O)C1=C(O)C=C2Oc3c(C(C)=O)c(O)c(C)c(O)c3[C@@]2(C)C1=O [(+)-USNIC ACID] with HL-60.
OUTPUT: 5.27

----------
Field: remaining at 24 h. Provide a value for each of the molecules that follow.
assay: Chemical stability of the compound in methanol measured at 24 hrs by LC-MS analysis; assay type: physicochemical; conditions: read-out: Stability
Hi! Could you send only the number? It should be in %, unit omitted.

INPUT: So what's the measured remaining at 24 h for this one? COc1cc(C)c2c(c1C=O)Oc1c(c(C)c(O)c3c1C(O)OC3=O)OC2=O (stereo unspecified)
OUTPUT: 90.1

INPUT: So what's the measured remaining at 24 h for this one? `COc1cc(C)c2c(c1C=O)Oc1c(C=O)c(C(=O)O)c(O)c(C)c1OC2=O`
OUTPUT: 88.5

INPUT: So what's the measured remaining at 24 h for this one? `CCCc1cc(O)c(O)c(O)c1C(=O)OC`
OUTPUT: 95

INPUT: So what's the measured remaining at 24 h for this one? `CCCc1cc(OC)cc(O)c1C(=O)Oc1c(O)cc(CCC)c(C(=O)OC)c1O`
OUTPUT: 63.8

INPUT: So what's the measured remaining at 24 h for this one? `CCCc1cc(O)cc(O)c1C(=O)OC`
OUTPUT: 99.9

INPUT: So what's the measured remaining at 24 h for this one? CC(=O)C1=C(O)C=C2Oc3c(C(C)=O)c(O)c(C)c(O)c3[C@@]2(C)C1=O [(+)-USNIC ACID]
OUTPUT: 99.9

----------
assay: Chemical stability of the compound in methanol measured immediately post compound addition by LC-MS analysis; type: physicochemical; conditions: read-out: Stability
Property Name: remaining at 0 h (%)
Hi! Could you send only the number? It should be in %, unit omitted.

INPUT: So what's the measured remaining at 0 h for this one? `CCCc1cc(O)cc(O)c1C(=O)OC`
OUTPUT: 99.8

INPUT: So what's the measured remaining at 0 h for this one? CC(=O)C1=C(O)C=C2Oc3c(C(C)=O)c(O)c(C)c(O)c3[C@@]2(C)C1=O [(+)-USNIC ACID]
OUTPUT: 99.9

INPUT: So what's the measured remaining at 0 h for this one? `CCCc1cc(O)c(O)c(O)c1C(=O)OC`
OUTPUT: 97.8

INPUT: So what's the measured remaining at 0 h for this one? `COc1cc(C)c2c(c1C=O)Oc1c(C=O)c(C(=O)O)c(O)c(C)c1OC2=O`
OUTPUT: 94.1

INPUT: So what's the measured remaining at 0 h for this one? COc1cc(C)c2c(c1C=O)Oc1c(c(C)c(O)c3c1C(O)OC3=O)OC2=O (stereo unspecified)
OUTPUT: 89.7

INPUT: So what's the measured remaining at 0 h for this one? `CCCc1cc(OC)cc(O)c1C(=O)Oc1c(O)cc(CCC)c(C(=O)OC)c1O`
OUTPUT: 99.8
